pIC50: −log10 of the molar value.
Values of pIC50 reported for UniProt P12931 appear below.
Sequence (P12931 whole entry): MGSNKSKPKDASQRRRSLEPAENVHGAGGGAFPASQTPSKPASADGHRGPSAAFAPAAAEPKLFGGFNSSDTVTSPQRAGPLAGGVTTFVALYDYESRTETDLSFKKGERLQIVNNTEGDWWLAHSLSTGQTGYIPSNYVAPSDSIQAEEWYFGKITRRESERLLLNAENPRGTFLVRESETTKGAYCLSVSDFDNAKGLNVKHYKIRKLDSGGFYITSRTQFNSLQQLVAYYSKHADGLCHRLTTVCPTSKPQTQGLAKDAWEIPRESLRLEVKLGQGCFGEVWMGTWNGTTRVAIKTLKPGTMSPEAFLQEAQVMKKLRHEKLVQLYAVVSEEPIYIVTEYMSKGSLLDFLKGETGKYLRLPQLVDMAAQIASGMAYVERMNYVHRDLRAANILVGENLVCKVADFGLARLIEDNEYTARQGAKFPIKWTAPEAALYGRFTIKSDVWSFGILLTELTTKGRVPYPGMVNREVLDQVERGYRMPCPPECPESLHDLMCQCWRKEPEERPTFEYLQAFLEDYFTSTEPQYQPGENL

{"columns": ["Structure string", "pIC50"],
 "data": [
  ["COc1cc(C(=O)Nc2ccc(C)c(N3Cc4cnc(N)nc4C4(CC4)C3=O)c2)cc(C(F)(F)F)c1", "> 8.00"],
  ["COc1ccc(-c2cc(C(=O)Nc3ccc(C)c(N4Cc5cnc(N)nc5C5(CC5)C4=O)c3)cc(C(F)(F)F)c2)cc1", "7.00 to 8.00"],
  ["Cc1ccc(NC(=O)c2cc(N3CCOCC3)cc(C(F)(F)F)c2)cc1N1Cc2cnc(NC3CC3)nc2C2(CC2)C1=O", "< 7.00"],
  ["Cc1ccc(NC(=O)c2cccc(C(F)(F)F)c2)cc1N1Cc2cnc(N)nc2C2(CC2)C1=O", "7.00 to 8.00"],
  ["Cc1cn(-c2cc(C(=O)Nc3ccc(C)c(N4Cc5cnc(NC6CC6)nc5C5(CC5)C4=O)c3)cc(C(F)(F)F)c2)cn1", "7.00 to 8.00"],
  ["Cc1cn(-c2cc(C(=O)Nc3ccc(C)c(N4Cc5cnc(N)nc5C5(CC5)C4=O)c3)cc(C(F)(F)F)c2)cn1", "> 8.00"],
  ["COCCN(C)c1cc(C(=O)Nc2ccc(C)c(N3Cc4cnc(N)nc4C4(CC4)C3=O)c2)cc(C(F)(F)F)c1", "7.00 to 8.00"],
  ["Cc1ccc(Nc2ncc3c(n2)C2(CC2)C(=O)N(c2cc(NC(=O)c4cccc(C(F)(F)F)c4)ccc2C)C3)cn1", "> 8.00"]
]}

====

# pIC50 per entry
# Tgt: BMX (Homo sapiens, UniProt P51813)
# Sequence (P51813 whole entry): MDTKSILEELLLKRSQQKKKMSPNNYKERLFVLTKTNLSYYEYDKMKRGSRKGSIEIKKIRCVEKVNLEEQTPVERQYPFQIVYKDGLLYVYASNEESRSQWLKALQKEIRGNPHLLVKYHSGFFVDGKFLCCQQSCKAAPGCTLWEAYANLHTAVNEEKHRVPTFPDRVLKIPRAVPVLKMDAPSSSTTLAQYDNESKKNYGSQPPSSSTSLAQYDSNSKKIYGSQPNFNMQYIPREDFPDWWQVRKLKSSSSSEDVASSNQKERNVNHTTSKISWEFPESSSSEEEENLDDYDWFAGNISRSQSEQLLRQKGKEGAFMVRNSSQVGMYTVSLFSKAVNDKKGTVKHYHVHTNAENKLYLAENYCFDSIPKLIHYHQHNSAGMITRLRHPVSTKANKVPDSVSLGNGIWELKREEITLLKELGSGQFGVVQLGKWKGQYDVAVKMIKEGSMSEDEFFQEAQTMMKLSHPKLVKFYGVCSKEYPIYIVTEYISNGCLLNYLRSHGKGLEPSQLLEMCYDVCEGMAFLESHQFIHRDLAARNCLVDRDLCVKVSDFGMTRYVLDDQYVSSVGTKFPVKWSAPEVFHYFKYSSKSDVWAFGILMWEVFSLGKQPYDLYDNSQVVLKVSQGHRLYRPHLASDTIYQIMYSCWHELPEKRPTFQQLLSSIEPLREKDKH
pIC50: −log10 of the molar value.
Value kind: pIC50

{"columns": ["Compound", "Value kind", "Result"],
 "data": [
  ["COCCN(C)c1cc(C(=O)Nc2ccc(C)c(N3Cc4cnc(N)nc4C4(CC4)C3=O)c2)cc(C(F)(F)F)c1 [Compound 31]", "pIC50", "> 8.00"],
  ["Cc1ccc(NC(=O)c2cccc(C(F)(F)F)c2)cc1N1Cc2cnc(N)nc2C2(CC2)C1=O [Compound 2]", "pIC50", "7.00 to 8.00"],
  ["Cc1ccc(NC(=O)c2cc(N3CCOCC3)cc(C(F)(F)F)c2)cc1N1Cc2cnc(N)nc2C2(CC2)C1=O [Compound 29]", "pIC50", "> 8.00"],
  ["COc1ccc(-c2cc(C(=O)Nc3ccc(C)c(N4Cc5cnc(N)nc5C5(CC5)C4=O)c3)cc(C(F)(F)F)c2)cc1 [Compound 20]", "pIC50", "7.00 to 8.00"],
  ["Cc1cc(Nc2ncc3c(n2)C2(CC2)C(=O)N(c2cc(NC(=O)c4cccc(C(F)(F)F)c4)ccc2C)C3)n(C)n1 [Compound 1]", "pIC50", "> 8.00"],
  ["Cc1ccc(NC(=O)c2cc(Cl)cc(C(F)(F)F)c2)cc1N1Cc2cnc(N)nc2C2(CC2)C1=O [Compound 26]", "pIC50", "> 8.00"],
  ["Cc1ccc(Nc2ncc3c(n2)C2(CC2)C(=O)N(c2cc(NC(=O)c4cccc(C(F)(F)F)c4)ccc2C)C3)cn1 [Compound 51]", "pIC50", "> 8.00"],
  ["Cc1cn(-c2cc(C(=O)Nc3ccc(C)c(N4Cc5cnc(NC6CC6)nc5C5(CC5)C4=O)c3)cc(C(F)(F)F)c2)cn1 [Compound 8]", "pIC50", "> 8.00"],
  ["Cc1ccc(NC(=O)c2cc(N3CCOCC3)cc(C(F)(F)F)c2)cc1N1Cc2cnc(NC3CC3)nc2C2(CC2)C1=O [Compound 28]", "pIC50", "> 8.00"]
]}

====

pIC50: −log10 of the molar value.
Target or system ACK1 (Homo sapiens): recorded pIC50 listed per item.
Value kind: pIC50

{"columns": ["Compound", "Result"],
 "data": [
  ["Cc1ccc(Nc2ncc3c(n2)C2(CC2)C(=O)N(c2cc(NC(=O)c4cccc(C(F)(F)F)c4)ccc2C)C3)cn1 [Compound 51]", "7.00 to 8.00"],
  ["Cc1ccc(NC(=O)c2cccc(C(F)(F)F)c2)cc1N1Cc2cnc(NC3CC3)nc2C2(CC2)C1=O [Compound 3]", "7.00 to 8.00"],
  ["Cc1cn(-c2cc(C(=O)Nc3ccc(C)c(N4Cc5cnc(NC6CC6)nc5C5(CC5)C4=O)c3)cc(C(F)(F)F)c2)cn1 [Compound 8]", "> 8.00"],
  ["Cc1ccc(NC(=O)c2cc(Cl)cc(C(F)(F)F)c2)cc1N1Cc2cnc(N)nc2C2(CC2)C1=O [Compound 26]", "7.00 to 8.00"],
  ["Cc1ccc(NC(=O)c2cccc(C(F)(F)F)c2)cc1N1Cc2cnc(N)nc2C2(CC2)C1=O [Compound 2]", "7.00 to 8.00"]
]}

====

Read-out record for AsPC-1: GI50

{"columns": ["Structure string", "GI50"],
 "data": [
  ["Cc1ccc(NC(=O)c2cccc(C(F)(F)F)c2)cc1N1Cc2cnc(N)nc2C2(CC2)C1=O", "< 1 µM"],
  ["Cc1ccc(NC(=O)c2cccc(C(F)(F)F)c2)cc1N1Cc2cnc(Nc3ccc(N4CCN(C)CC4)cc3)nc2C2(CC2)C1=O", "< 1 µM"],
  ["Cc1ccc(NC(=O)c2cccc(C(F)(F)F)c2)cc1N1Cc2cnc(Nc3cnn(CC(F)(F)F)c3)nc2C2(CC2)C1=O", "< 1 µM"],
  ["Cc1ccc(NC(=O)c2cncc(C(F)(F)F)c2)cc1N1Cc2cnc(N)nc2C2(CC2)C1=O", "1 to 5 µM"],
  ["Cc1ccc(NC(=O)c2cccc(C(F)(F)F)c2)cc1N1Cc2cnc(NC3CC3)nc2C2(CC2)C1=O", "1 to 5 µM"],
  ["Cc1ccc(NC(=O)c2cccc(C(F)(F)F)c2)cc1N1Cc2cnc(Nc3ccc(CN4CCN(C)CC4)cc3)nc2C2(CC2)C1=O", "< 1 µM"],
  ["Cc1ccc(NC(=O)c2cc(F)cc(C(F)(F)F)c2)cc1N1Cc2cnc(N)nc2C2(CC2)C1=O", "< 1 µM"]
]}

====

These molecules were tested on AsPC-1; GI50 is the recorded read-out.
Value kind: GI50

{"columns": ["Structure string", "Value kind", "Result"],
 "data": [
  ["Cc1cn(-c2cc(C(=O)Nc3ccc(C)c(N4Cc5cnc(NC6CC6)nc5C5(CC5)C4=O)c3)cc(C(F)(F)F)c2)cn1", "GI50", "1 to 5 µM"],
  ["Cc1ccc(NC(=O)c2cc(N3CCOCC3)cc(C(F)(F)F)c2)cc1N1Cc2cnc(NC3CC3)nc2C2(CC2)C1=O", "GI50", "5 to 10 µM"],
  ["Cc1ccc(Nc2ncc3c(n2)C2(CC2)C(=O)N(c2cc(NC(=O)c4cccc(C(F)(F)F)c4)ccc2C)C3)cn1", "GI50", "< 1 µM"]
]}

====

Observed GI50 values for SW480 are listed in what follows.

{"columns": ["Structure string", "GI50"],
 "data": [
  ["Cc1ccc(NC(=O)c2cccc(C(F)(F)F)c2)cc1N1Cc2cnc(N)nc2C2(CC2)C1=O", "1000 to 5000 nM"],
  ["Cc1ccc(NC(=O)c2cc(N3CCOCC3)cc(C(F)(F)F)c2)cc1N1Cc2cnc(NC3CC3)nc2C2(CC2)C1=O", "1000 to 5000 nM"],
  ["Cc1ccc(NC(=O)c2cccc(C(F)(F)F)c2)cc1N1Cc2cnc(Nc3ccc(N4CCN(C)CC4)cc3)nc2C2(CC2)C1=O", "< 1000 nM"],
  ["Cc1ccc(Nc2ncc3c(n2)C2(CC2)C(=O)N(c2cc(NC(=O)c4cccc(C(F)(F)F)c4)ccc2C)C3)cn1", "< 1000 nM"]
]}

====

# Test system: SW480

{"columns": ["Molecule", "GI50"],
 "data": [
  ["Cc1ccc(NC(=O)c2cncc(C(F)(F)F)c2)cc1N1Cc2cnc(N)nc2C2(CC2)C1=O [Compound 24]", "1 to 5 µM"],
  ["Cc1cn(-c2cc(C(=O)Nc3ccc(C)c(N4Cc5cnc(NC6CC6)nc5C5(CC5)C4=O)c3)cc(C(F)(F)F)c2)cn1 [Compound 8]", "1 to 5 µM"],
  ["Cc1ccc(NC(=O)c2cc(F)cc(C(F)(F)F)c2)cc1N1Cc2cnc(N)nc2C2(CC2)C1=O [Compound 7]", "1 to 5 µM"],
  ["Cc1ccc(NC(=O)c2cccc(C(F)(F)F)c2)cc1N1Cc2cnc(Nc3cnn(CC(F)(F)F)c3)nc2C2(CC2)C1=O [Compound 64]", "< 1 µM"],
  ["Cc1ccc(NC(=O)c2cccc(C(F)(F)F)c2)cc1N1Cc2cnc(NC3CC3)nc2C2(CC2)C1=O [Compound 3]", "1 to 5 µM"]
]}

====

Please consider the recorded GI50 for SW620 in what follows.

{"columns": ["Structure string", "GI50"],
 "data": [
  ["Cc1cn(-c2cc(C(=O)Nc3ccc(C)c(N4Cc5cnc(NC6CC6)nc5C5(CC5)C4=O)c3)cc(C(F)(F)F)c2)cn1", "1 to 5 µM"],
  ["Cc1ccc(NC(=O)c2cccc(C(F)(F)F)c2)cc1N1Cc2cnc(Nc3ccc(N4CCN(C)CC4)cc3)nc2C2(CC2)C1=O", "< 1 µM"],
  ["Cc1ccc(NC(=O)c2cncc(C(F)(F)F)c2)cc1N1Cc2cnc(N)nc2C2(CC2)C1=O", "< 1 µM"],
  ["Cc1ccc(NC(=O)c2cccc(C(F)(F)F)c2)cc1N1Cc2cnc(Nc3cnn(CC(F)(F)F)c3)nc2C2(CC2)C1=O", "< 1 µM"],
  ["Cc1ccc(NC(=O)c2cc(N3CCOCC3)cc(C(F)(F)F)c2)cc1N1Cc2cnc(NC3CC3)nc2C2(CC2)C1=O", "1 to 5 µM"],
  ["Cc1ccc(Nc2ncc3c(n2)C2(CC2)C(=O)N(c2cc(NC(=O)c4cccc(C(F)(F)F)c4)ccc2C)C3)cn1", "1 to 5 µM"],
  ["Cc1ccc(NC(=O)c2cccc(C(F)(F)F)c2)cc1N1Cc2cnc(NC3CC3)nc2C2(CC2)C1=O", "1 to 5 µM"],
  ["Cc1ccc(NC(=O)c2cc(F)cc(C(F)(F)F)c2)cc1N1Cc2cnc(N)nc2C2(CC2)C1=O", "1 to 5 µM"],
  ["Cc1ccc(NC(=O)c2cccc(C(F)(F)F)c2)cc1N1Cc2cnc(N)nc2C2(CC2)C1=O", "1 to 5 µM"]
]}

Ref: patent EP4722212A1
